These measurements were taken from paper PMC8286348.

Target: PR^S17
Assay: Kinetic inhibition
Format: biochemical, HIV-1
Settings: read-out: Ki for PR^S17; FRET-substrate (BACHEM H-2992), 37°C, pH 5.6
pKi: −log10 of the molar value.
measured-property: pKi

- compound: "CC(C)CN(C[C@@H](O)[C@H](Cc1cc(F)cc(F)c1)NC(=O)O[C@H]1C2COC3OCC1C3C2)S(=O)(=O)c1ccc2nc(NC3CC3)sc2c1 (stereo partly shown)"
  measured-property: "pKi"
  value-reported: 7.77
